Where do these numbers come from? They come from patent US11479563B2.

Tested on: NCI-H1417 cells (human small-cell lung cancer cell lines);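 also: growth of NCI-H1417 cells over 10 days at 37 °C, read as viable-cell luminescence by CellTiter-Glo 2.0, expressed as % of DMSO-only control wells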
Test: cells
Details: NCI-H1417, read-out: Cell-Growth Inhibition Test: NCI-H1417 Cells IC50 (nM)
Structures can show the parent of a compound that is named as a salt.
IC50 values by entry

| molecule | IC50 |
| --- | --- |
| CC(C)(O)Cn1ncc2cc(-c3ccc(CN4C5CCC4C(N)C5)cc3-c3ccc(C#N)c(F)c3)c(F)cc21 (stereo not shown) [Example 287, dihydrochloride] | 0.1 nM |

Looking for the measured IC50 of `CC(C)N[C@@H]1C[C@H]2CC[C@@H](C1)N2C(=O)c1ccc(-c2ccc(CC(C)(C)O)cc2F)c(-c2ccc(C#N)c(F)c2)c1` , can you help?
13.7 nM

Which IC50 is listed for `Cc1nn(CC(C)(C)O)c2cc(F)c(-c3ccc(C(=O)N4[C@@H]5CC[C@H]4C[C@@H](N)C5)cc3-c3ccc(C#N)c(F)c3)cc12` ?
4.6 nM

Item under review: CCC(O)(CC)Cn1nnc2cc(-c3ccc(C(=O)N4C5CCC4C(N)C5)cc3-c3ccc(C#N)c(F)c3)c(F)c(F)c21 (stereo not shown) . Reported IC50?
0.47 nM

I would be grateful if you could share the reported IC50 for `CC(C)(O)Cn1nnc2cc(-c3ccc(C(=O)N4[C@@H]5CC[C@H]4C[C@@H](N)C5)cc3-c3ccc(C#N)c(F)c3)c(F)c(C3CC3)c21` .
8.5 nM

Quick one: IC50 for CC(C)(O)Cc1ccc(-c2ccc(CN3CC[C@H](N)C3)cc2-c2ccc(C#N)c(F)c2)c(F)c1 [Example 291, dihydrochloride] ?
4.65 nM

Any idea what its IC50 is? The molecule is CCC(O)(CC)Cn1nnc2cc(-c3ccc(CN4C5CCC4C(N)C5)cc3-c3ccc(C#N)c(F)c3)c(F)c(F)c21 (stereo not shown) [Example 293, dihydrochloride]
0.22 nM

So what's the measured IC50 for this one? `CC(C)(O)CCn1ncc2cc(-c3ccc(C(=O)N4[C@@H]5CC[C@H]4C[C@@H](N)C5)cc3-c3ccc(C#N)c(F)c3)c(F)cc21`
5.63 nM

Look up IC50 for this molecule: `COCCc1ccc(-c2ccc(C(=O)N3[C@@H]4CC[C@H]3C[C@@H](N)C4)cc2-c2ccc(C#N)c(F)c2)c(F)c1`
8.2 nM

Return reported IC50; argument: `CC(C)(O)Cn1nnc2cc(-c3ccc(C(=O)N4[C@@H]5CC[C@H]4C[C@@H](N)C5)cc3-c3ccc(C#N)c(F)c3)c(F)c(F)c21`
2.49 nM
